- targetOfAssay: Human cGAS (Homo sapiens (Human), UniProt Q8N884)
- Sequence (Q8N884 whole entry): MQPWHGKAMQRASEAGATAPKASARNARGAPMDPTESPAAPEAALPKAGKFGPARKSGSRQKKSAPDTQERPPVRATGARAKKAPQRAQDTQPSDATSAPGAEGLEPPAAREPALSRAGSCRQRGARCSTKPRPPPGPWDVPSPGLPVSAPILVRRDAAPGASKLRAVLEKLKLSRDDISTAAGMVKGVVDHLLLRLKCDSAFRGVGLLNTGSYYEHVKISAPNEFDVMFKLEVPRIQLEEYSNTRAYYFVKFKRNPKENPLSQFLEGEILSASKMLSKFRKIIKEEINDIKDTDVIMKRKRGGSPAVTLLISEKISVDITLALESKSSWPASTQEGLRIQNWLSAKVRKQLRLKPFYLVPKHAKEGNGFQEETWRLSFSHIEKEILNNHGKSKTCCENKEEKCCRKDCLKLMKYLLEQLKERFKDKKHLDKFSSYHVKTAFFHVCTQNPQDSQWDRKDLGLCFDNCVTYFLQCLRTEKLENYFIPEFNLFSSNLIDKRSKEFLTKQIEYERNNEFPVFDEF
recordedEndpoint: IC50 (µM)
Your answer is read as µM, so omit the unit and give the number.

molecule	targetOfAssay	IC50 (µM)
CC#Cc1cnc(O[C@H]2C[C@@H](C(=O)O)N(c3nc(C(F)(F)F)nc4c3oc3ccccc34)C2)c([C@@]2(F)CCN(C3COC3)C[C@@H]2C)c1 [Example 2.17]	Human cGAS (Homo sapiens (Human), UniProt Q8N884)	0.096

Okay, now this molecule:
// lookup IC50 | system=Human cGAS (Homo sapiens (Human), UniProt Q8N884) | key= COC(=O)[C@@H]1C[C@H](Oc2ncc(Cl)cc2[C@@]2(OC)CC(C)(C)S(=O)(=O)C[C@@H]2C)CN1c1nc(C(F)F)nc2c1oc1ccccc12 [Example P03]
7.25

====

List of pIC50 values.
- Tested on: IFN induction in dsDNA-stimulated human whole blood
- assaySummary: Human whole blood assay, dsDNA transfection, IFNα2a production (hWB IC50)
- Assay type: cell-based
As a rule, pIC50 stands for the negative log10 of the concentration, concentration in M.

Consider the reported pIC50 for these compounds:
compoundSmiles	assayValue
C[C@H]1CN(C(N)=O)CC[C@]1(F)c1cc(Cl)cnc1O[C@H]1C[C@@H](C(=O)O)N(c2nc(C(F)F)nc3c2oc2ccccc23)C1	6.32
CC#Cc1cnc(O[C@H]2C[C@@H](C(=O)O)N(c3nc(C(F)(F)F)nc4c3oc3ccccc34)C2)c([C@@]2(F)CCN(C3COC3)C[C@@H]2C)c1	6.54
O=C(O)[C@@H]1C[C@H](Oc2ncc(Cl)cc2[C@]2(F)CCS(=O)(=O)C3(CCC3)C2)CN1c1nc(C(F)F)nc2c1oc1ccccc12	7.12
C[C@H]1CS(=O)(=O)C(C)(C)C[C@@]1(F)c1cc(Cl)cnc1O[C@H]1C[C@@H](C(=O)O)N(c2nc(C(F)(F)F)nc3c2oc2ccccc23)C1	6.67

Need pIC50 of O=C(O)[C@@H]1C[C@H](Oc2ncc(Cl)cc2C2(F)CCS(=O)(=O)CC2)CN1c1nc(C(F)(F)F)nc2c1oc1ccccc12 , thanks.
7.05

====

- targetOfAssay: Human cGAS (Homo sapiens (Human), UniProt Q8N884);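 note: compounds preincubated 60 min, then GTP and ATP (30 µM each) added for 90 min at room temperature, cGAMP read relative to cyclic-di-GMP internal standard, no-enzyme/DNA wells as 0%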
recordedEndpoint: log10(IC50) (log10 of the value in nM)
# log10 transformed; quantity=IC50; unit=nM

Consider the reported log10(IC50) for these compounds:
compound	recordedEndpoint	assayValue
CNc1cccc(-c2cnc(O[C@H]3C[C@@H](C(=O)O)N(c4nc(C(F)F)nc5c4oc4ccccc45)C3)c([C@@]3(F)CCOC[C@@H]3C)c2)c1 [Example 6.03]	log10(IC50)	1.00
C#Cc1cnc(O[C@H]2C[C@@H](C(=O)O)N(c3nc(C(F)F)nc4c3oc3ccccc34)C2)c(C2(F)CCS(=O)(=O)CC2)c1 [Example 2.03]	log10(IC50)	0.30
C#Cc1cnc(O[C@H]2C[C@@H](C(=O)O)N(c3nc(C(F)F)nc4c3oc3ccccc34)C2)c([C@]2(F)CCS(=O)(=O)C(C)(C)C2)c1 [Example 1.15]	log10(IC50)	0.78

Need log10(IC50) of C[C@H]1COCC[C@]1(F)c1cc(Br)cnc1O[C@H]1C[C@@H](C(=O)O)N(c2nc(C(F)F)nc3c2oc2ccccc23)C1 [Example 2.16] , thanks.
0.60

Thanks! And C#Cc1cnc(O[C@H]2C[C@@H](C(=O)O)N(c3nc(C(F)(F)F)nc4c3oc3ccccc34)C2)c([C@]2(F)CCOC[C@@H]2C)c1 [Example 1.04] ?
0.60

Thanks! And C#Cc1cnc(O[C@H]2C[C@@H](C(=O)OC)N(c3nc(C(F)(F)F)nc4c3oc3ccccc34)C2)c([C@@]2(F)CCS(=O)(=O)C[C@@H]2C)c1 [Example P01] ?
4.28

Thanks! And C[C@@H]1CS(=O)(=O)CC[C@@]1(F)c1cc(Cl)cnc1O[C@H]1C[C@@H](C(=O)O)N(c2nc(C(F)F)nc3c2oc2ccccc23)C1 [Example 1.12] ?
0.95

Thanks! And C#Cc1cnc(O[C@H]2C[C@@H](C(=O)O)N(c3nc(C(F)F)nc4c3oc3ccccc34)C2)c([C@@]2(F)CCOC[C@@H]2C)c1 [Example 1.02] ?
0.48

====

- Tested on: IFN induction in virus-stimulated THP1 cells
- assaySummary: Human cGAS cell assay, baculovirus-stimulated THP1-Dual cells, Lucia luciferase reporter (THP1(vir) IC50);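 note: IRF-dependent luminescence, 8 concentrations up to 10 µM in 1% DMSO, 0% = unstimulated cells, 100% = DMSO plus virus, counter assay stimulated with cGAMP downstream of cGAS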
- Type: cell-based
- conditionContext: Homo sapiens, THP-1; baculovirus-stimulated THP1-Dual cells, 18 h
recordedEndpoint: pIC50
As a rule, pIC50 stands for the negative log10 of the concentration, concentration in M.

Consider the reported pIC50 for these compounds:
compound	targetOfAssay	pIC50
C#Cc1cnc(O[C@H]2C[C@@H](C(=O)O)N(c3nc(C(F)F)nc4c3oc3ccccc34)C2)c([C@@]2(F)CCN(C(C)=O)C[C@@H]2C)c1	IFN induction in virus-stimulated THP1 cells	7.77
C[C@H]1CN(C(N)=O)CC[C@]1(F)c1cc(Cl)cnc1O[C@H]1C[C@@H](C(=O)O)N(c2nc(C(F)F)nc3c2oc2ccccc23)C1	IFN induction in virus-stimulated THP1 cells	6.61
C[C@H]1COCC[C@]1(F)c1cc(Br)cnc1O[C@H]1C[C@@H](C(=O)O)N(c2nc(C(F)F)nc3c2oc2ccccc23)C1	IFN induction in virus-stimulated THP1 cells	6.90
CC(C)(C(=O)N[C@H]1C[C@@H](C(=O)O)N(c2nc(C(F)(F)F)nc3c2oc2ccccc23)C1)c1cn[nH]c1 [Example 58, reference compound]	IFN induction in virus-stimulated THP1 cells	4.68
CC#Cc1cnc(O[C@H]2C[C@@H](C(=O)O)N(c3nc(C(F)(F)F)nc4c3oc3ccccc34)C2)c([C@@]2(F)CCN(C3COC3)C[C@@H]2C)c1	IFN induction in virus-stimulated THP1 cells	6.42

Okay, now this compound:
Need pIC50 of C#Cc1cnc(O[C@H]2C[C@@H](C(=O)O)N(c3nc(C(F)F)nc4c3oc3ccccc34)C2)c([C@]2(F)CC(C)(C)S(=O)(=O)C[C@@H]2C)c1 , thanks.
7.09

====

- Tested on: IFN induction in dsDNA-stimulated human whole blood
- assaySummary: Human whole blood assay, dsDNA transfection, IFNα2a production (hWB IC50);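 note: cGAS pathway activity, IFNα2a in plasma by MSD immunoassay after 22 h at 37 °C, 8 concentrations up to 10 µM in 0.1% DMSO, DMSO controls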
- Assay type: cell-based
List of IC50 values.
Your answer is read as nM, so omit the unit and give the number.

Consider the reported IC50 for these molecules:
molecule	targetOfAssay	IC50 (nM)
CC#Cc1cnc(O[C@H]2C[C@@H](C(=O)O)N(c3nc(C(F)F)nc4c3oc3ccccc34)C2)c([C@@]2(F)CCN(C(C)=O)C[C@@H]2C)c1 [Example 2.18]	IFN induction in dsDNA-stimulated human whole blood	97
O=C(O)[C@@H]1C[C@H](Oc2ncc(Cl)cc2[C@]2(F)CCS(=O)(=O)C3(CC3)C2)CN1c1nc(C(F)F)nc2c1oc1ccccc12 [Example 1.17]	IFN induction in dsDNA-stimulated human whole blood	45
C#Cc1cnc(O[C@H]2C[C@@H](C(=O)O)N(c3nc(C(F)F)nc4c3oc3ccccc34)C2)c([C@@]2(F)CCS(=O)(=O)C[C@@H]2C)c1 [Example 2.11]	IFN induction in dsDNA-stimulated human whole blood	3
C#Cc1cnc(O[C@H]2C[C@@H](C(=O)O)N(c3nc(C(F)F)nc4c3oc3ccccc34)C2)c([C@]2(F)CC(C)(C)S(=O)(=O)C[C@@H]2C)c1 [Example 1.10]	IFN induction in dsDNA-stimulated human whole blood	70
COC(=O)[C@@H]1C[C@H](Oc2ncc(Cl)cc2[C@@]2(F)CCS(=O)(=O)C[C@@H]2C)CN1c1nc(C(F)F)nc2c1oc1ccccc12 [Example P02]	IFN induction in dsDNA-stimulated human whole blood	140

Okay, now this molecule:
Need IC50 of C#Cc1cnc(O[C@H]2C[C@@H](C(=O)O)N(c3nc(C(F)F)nc4c3oc3ccccc34)C2)c([C@]2(F)CCOC[C@@H]2C)c1 [Example 1.03] , thanks.
137

====

// each record: one item and its pIC50 for Human cGAS (Homo sapiens (Human))
As a rule, pIC50 stands for the negative log10 of the concentration, concentration in M.

Consider the reported pIC50 for these compounds:
compound	pIC50
C#Cc1cnc(O[C@H]2C[C@@H](C(=O)O)N(c3nc(C(F)F)nc4c3oc3ccccc34)C2)c([C@]2(F)CCOC[C@@H]2C)c1 [Example 1.03]	8.70
CO[C@]1(c2cc(Cl)cnc2O[C@H]2C[C@@H](C(=O)O)N(c3nc(C(F)F)nc4c3oc3ccccc34)C2)CC(C)(C)S(=O)(=O)C[C@@H]1C [Example 1.05]	8.70
C#Cc1cnc(O[C@H]2C[C@@H](C(=O)O)N(c3nc(C(F)(F)F)nc4c3oc3ccccc34)C2)c([C@@]2(F)CCS(=O)(=O)C[C@@H]2C)c1 [Example 2.12]	8.52
C#Cc1cnc(O[C@H]2C[C@@H](C(=O)O)N(c3nc(C(F)(F)F)nc4c3oc3ccccc34)C2)c([C@@]2(F)CCN(C(C)=O)C[C@@H]2C)c1 [Example 2.19]	8.30
C#Cc1cnc(O[C@H]2C[C@@H](C(=O)O)N(c3nc(C(F)(F)F)nc4c3oc3ccccc34)C2)c([C@]2(F)CCS(=O)(=O)C[C@H]2C)c1 [Example 2.15]	8.22

Need pIC50 of O=C(O)[C@@H]1C[C@H](Oc2ncc(Cl)cc2[C@@]2(F)CCN3C(=O)OC[C@H]3C2)CN1c1nc(C(F)F)nc2c1oc1ccccc12 [Example 2.13] , thanks.
8.15
